- System: SF-539 CNS
- assay overview: NCI tumour cell line growth inhibition, 48 h
The entries below are paired with their reported TGI.

1) CCN(CC)CCN(C(=O)c1ccc(F)cc1)c1ccccc1N :: > 10 µM
2) C=CS(=O)(=O)CCN1CC1 :: > 10 µM

// next item, TGI requested
Query string: If you can, please state the reported TGI value of "CN(C)CCN1C(=O)c2cccc3cccc(c23)C1=O" .
Result string: > 25 µM

* * *

- Test system: MOLT-4 leukemia
- assay overview: NCI tumour cell line growth inhibition, 48 h
quantity measured: TGI

Example entries and their recorded answers appear below.
1. CSc1cccc(NC(=O)OC2CCCCCCCCCCC2)c1 :: > 100 µM
2. O=C(NNC(=O)c1ccccc1O)c1ccc(O)cc1 :: > 100 µM

// next item, TGI requested
Query string: If you can, please state the reported TGI value of "N#CCCN(CCN(CCC#N)C(=O)Nc1ccccc1)C(=O)Nc1ccccc1" .
Result string: > 100 µM

Values compiled from PubChem BioAssay (NCI).
